Provenance of the data: patent US20230233569A1

# experimental_system: KRAS G13C (Homo sapiens, UniProt P01116+P62937, G13C)
# Sequence (P01116 1-169 isoform P01116-2 G13C): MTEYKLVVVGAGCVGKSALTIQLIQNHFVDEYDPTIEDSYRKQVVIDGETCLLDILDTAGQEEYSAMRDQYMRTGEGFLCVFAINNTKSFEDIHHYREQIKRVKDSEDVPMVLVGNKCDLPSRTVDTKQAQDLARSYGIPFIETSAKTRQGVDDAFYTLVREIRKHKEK
# Sequence (P62937 whole entry): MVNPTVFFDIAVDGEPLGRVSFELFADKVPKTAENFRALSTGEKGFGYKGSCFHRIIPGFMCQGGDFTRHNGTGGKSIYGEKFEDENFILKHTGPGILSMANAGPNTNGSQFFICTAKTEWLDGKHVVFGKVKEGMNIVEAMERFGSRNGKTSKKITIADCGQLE
# assay_procedure: Disruption of BRAF RBD interaction with Ras (FRET / MOA assay, with Cyclophilin A)
# Format: biochemical
# measurement_conditions: KRAS G13C; read-out: KRAS G13C FRET data IC50
pIC50: −log10 of the molar value.
Assign pIC50 to each entry below.

Some compounds with known pIC50 results, for comparison:
[[record]]
compound = "C=CC(=O)N1CC[C@H](C(=O)N(C)[C@H](C(=O)N[C@H]2Cc3cc(O)cc(c3)-c3ccc4c(c3)c(c(-c3ccccc3CCOC)n4C(C)(C)C#N)CC(C)(C)COC(=O)[C@@H]3CCCN(N3)C2=O)C(C)C)C1"
result = "5.00 to 6.00"

[[record]]
compound = "C=CC(=O)N1CC[C@H](C(=O)N(C)[C@H](C(=O)N[C@H]2Cc3nsc(n3)-c3ccc4c(c3)c(c(-c3cccnc3[C@H](C)OC)n4CC)CC(C)(C)COC(=O)[C@@H]3CCCN(N3)C2=O)C(C)C)C1 (atropisomer, axis not shown)"
result = "6.00 to 7.00"

[[record]]
compound = "C=CC(=O)N1CC[C@H](C(=O)N(C)[C@H](C(=O)N[C@H]2Cc3cc(O)cc(c3)-c3ccc4c(c3)c(c(-c3nccnc3COC)n4CC)CC(C)(C)COC(=O)[C@@H]3CCCN(N3)C2=O)C(C)C)C1"
result = "< 5.00"


Q. Any idea what its pIC50 is? The compound is C=CC(=O)N1CC(OC[C@H](C(=O)N[C@H]2Cc3cc(F)cc(c3)-c3ccc4c(c3)c(c(-c3cccnc3[C@H](C)OC)n4CC)CC(C)(C)COC(=O)[C@@H]3CCCN(N3)C2=O)C(C)C)C1 (atropisomer, axis not shown)
A. 6.00 to 7.00

----------
# experimental_system: KRAS G12V (Homo sapiens, UniProt P01116+P62937, G12V)
# Sequence (P01116 1-169 isoform P01116-2 G12V limits assumed): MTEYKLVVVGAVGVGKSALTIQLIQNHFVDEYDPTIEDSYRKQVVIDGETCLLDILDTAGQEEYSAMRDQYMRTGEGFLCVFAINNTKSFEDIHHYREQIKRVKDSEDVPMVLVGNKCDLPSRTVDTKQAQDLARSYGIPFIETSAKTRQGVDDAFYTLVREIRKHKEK
# Sequence (P62937 whole entry): as the sequence (P62937 whole entry) above
# assay_procedure: Ras-Raf disruption / FRET / MOA assay (BRAF RBD)
# Assay type: biochemical
# measurement_conditions: Ras-Raf disruption, with Cyclophilin A; read-out: KRAS G12V FRET data IC50
quantity: IC50

Some compounds with known IC50 results, for comparison:
[[record]]
compound = "CCn1c(-c2cccnc2[C@H](C)OC)c2c3cc(ccc31)-c1csc(n1)C[C@H](NC(=O)[C@H](C(C)C)N(C)C(=O)N1CCN(C(=O)[C@@H]3CN3)[C@H](C)C1)C(=O)N1CCC[C@H](N1)C(=O)OCC(C)(C)C2"
quantity = "IC50"
result = "100 to 1000 nM"

[[record]]
compound = "CCn1c(-c2cccnc2[C@H](C)OC)c2c3cc(ccc31)-c1csc(n1)C[C@H](NC(=O)[C@H](C(C)C)N(C)C(=O)N(C)[C@H]1CCCN(C(=O)[C@H]3CN3)C1)C(=O)N1CCC[C@H](N1)C(=O)OCC(C)(C)C2 (atropisomer, axis not shown)"
quantity = "IC50"
result = "1000 to 10000 nM"

[[record]]
compound = "CCn1c(-c2cccnc2[C@H](C)OC)c2c3cc(ccc31)-c1cc(O)cc(c1)C[C@H](NC(=O)[C@H](C(C)C)N1CCC3(CN(C(=O)[C@H]4CN4)C3)C1=O)C(=O)N1CCC[C@H](N1)C(=O)OCC(C)(C)C2"
quantity = "IC50"
result = "100 to 1000 nM"

[[record]]
compound = "CCn1c(-c2cccnc2[C@H](C)OC)c2c3cc(ccc31)-c1cc(O)cc(c1)C[C@H](NC(=O)[C@H](C(C)C)N(C)C(=O)CN(C)C(=O)[C@H]1C[C@@H]3N[C@@H]3C1)C(=O)N1CCC[C@H](N1)C(=O)OCC(C)(C)C2 (atropisomer, axis not shown)"
quantity = "IC50"
result = "10 to 100 nM"

[[record]]
compound = "CCn1c(-c2cccnc2[C@H](C)OC)c2c3cc(ccc31)-c1cccc(c1)C[C@H](NC(=O)[C@H](C(C)C)N(C)C(=O)[C@H]1CC[C@H](N=C=NC(C)(C)C)C1)C(=O)N1CCC[C@H](N1)C(=O)OCC(C)(C)C2"
quantity = "IC50"
result = "> 10000 nM"


Would you mind listing IC50 for each of the following compounds?
1. CCn1c(-c2cccnc2[C@H](C)OC)c2c3cc(ccc31)-c1csc(n1)C[C@H](NC(=O)[C@H](C(C)C)N(C)C(=O)N1CCN(C(=O)[C@@H]3CN3)[C@@H](C)C1)C(=O)N1CCC[C@H](N1)C(=O)OCC(C)(C)C2
2. CCn1c(-c2cccnc2[C@H](C)OC)c2c3cc(ccc31)-c1csc(n1)C[C@H](NC(=O)[C@H](C(C)C)N(C)C(=O)N1CCN(C(=O)[C@@H]3CN3)CC1)C(=O)N1CCC[C@H](N1)C(=O)OCC(C)(C)C2
3. CCn1c(-c2cccnc2[C@H](C)OC)c2c3cc(ccc31)-c1cc(O)cc(c1)C[C@H](NC(=O)[C@H](C(C)C)N(C)C(=O)N1CCN(C(=O)[C@@H]3CN3)C(=O)C1)C(=O)N1CCC[C@H](N1)C(=O)OCC(C)(C)C2 [Example 194]
4. CCn1c(-c2cccnc2[C@H](C)OC)c2c3cc(ccc31)-c1cc(O)cc(c1)C[C@H](NC(=O)[C@H](C(C)C)N(C)C(=O)[C@@H]1CCN(C(=O)[C@@H]3CN3)C1)C(=O)N1CCC[C@H](N1)C(=O)OCC(C)(C)C2
5. CCn1c(-c2cccnc2[C@H](C)OC)c2c3cc(ccc31)-c1cc(O)cc(c1)C[C@H](NC(=O)[C@H](C(C)C)N(C)C(=O)N1CC[C@H](N(C)C(=O)[C@@H]3CN3)C1)C(=O)N1CCC[C@H](N1)C(=O)OCC(C)(C)C2 (atropisomer, axis not shown)
6. CCn1c(-c2cccnc2[C@H](C)OC)c2c3cc(ccc31)-c1csc(n1)C[C@H](NC(=O)[C@H](C(C)C)N(C)C(=O)N(C)CCN(C)C(=O)[C@@H]1CN1)C(=O)N1CCC[C@H](N1)C(=O)OCC(C)(C)C2 (atropisomer, axis not shown)
7. CCn1c(-c2cccnc2[C@H](C)OC)c2c3cc(ccc31)-c1cc(O)cc(c1)C[C@H](NC(=O)[C@H](C(C)C)N(C)C(=O)C1CC3(C1)CN(C(=O)[C@@H]1CN1)C3)C(=O)N1CCC[C@H](N1)C(=O)OCC(C)(C)C2
8. CCn1c(-c2cnccc2COC)c2c3cc(ccc31)-c1cc(O)cc(c1)C[C@H](NC(=O)[C@H](C(C)C)N(C)C(=O)CN(C)C(=O)[C@H]1[C@@H](C(=O)OC)N1[S@+]([O-])C(C)(C)C)C(=O)N1CCC[C@H](N1)C(=O)OCC(C)(C)C2 (stereo partly drawn)

A.
["100 to 1000 nM", "100 to 1000 nM", "100 to 1000 nM", "10 to 100 nM", "100 to 1000 nM", "100 to 1000 nM", "100 to 1000 nM", "10 to 100 nM"]

Would you mind listing IC50 for each of the following compounds?
1. CCn1c(-c2cccnc2[C@H](C)OC)c2c3cc(ccc31)-c1cc(O)cc(c1)C[C@H](NC(=O)[C@@H](COC1CCN(C(=O)[C@H]3CN3)CC1)C(C)C)C(=O)N1CCC[C@H](N1)C(=O)OCC(C)(C)C2 (atropisomer, axis not shown)
2. CCn1c(-c2cccnc2[C@H](C)OC)c2c3cc(ccc31)-c1csc(n1)C[C@H](NC(=O)[C@H](C(C)C)N(C)C(=O)N1CCN(C(=O)[C@H]3CN3)[C@H](C)C1)C(=O)N1CCC[C@H](N1)C(=O)OCC(C)(C)C2

A.
["1000 to 10000 nM", "100 to 1000 nM"]

----------
Assign pIC50 to each entry below.
# experimental_system: KRAS G12D (Homo sapiens, UniProt P01116+P62937, G12D)
# Sequence (P01116 1-169 isoform P01116-2 G12D limits assumed): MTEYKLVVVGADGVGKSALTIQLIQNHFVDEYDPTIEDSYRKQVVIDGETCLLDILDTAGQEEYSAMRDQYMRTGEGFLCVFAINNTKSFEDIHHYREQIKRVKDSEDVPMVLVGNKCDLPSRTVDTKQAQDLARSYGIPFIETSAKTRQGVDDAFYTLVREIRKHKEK
# Sequence (P62937 whole entry): as the sequence (P62937 whole entry) above
# assay_procedure: Disruption of BRAF RBD interaction with Ras (FRET / MOA assay, with Cyclophilin A)
# Type: biochemical
# measurement_conditions: read-out: KRAS G12D FRET data, IC50
pIC50: −log10 of the molar value.

Some compounds with known pIC50 results, for comparison:
[[record]]
compound = "CCn1c(-c2cccnc2[C@H](C)OC)c2c3cc(ccc31)-c1cc(O)cc(c1)C[C@H](NC(=O)[C@H](C(C)C)N(C)C(=O)[C@@H]1CCN[C@@H]1c1ccccc1)C(=O)N1CCC[C@H](N1)C(=O)OCC(C)(C)C2 (atropisomer, axis not shown)"
result = "7.00 to 8.00"

[[record]]
compound = "CCn1c(-c2cccnc2[C@H](C)OC)c2c3cc(ccc31)-c1cc(O)cc(c1)C[C@H](NC(=O)C(C1CC1)C1CC1)C(=O)N1CCC[C@H](N1)C(=O)OCC(C)(C)C2"
result = "5.00 to 6.00"

[[record]]
compound = "C=CC(=O)N1CC[C@H](C(=O)N(C)[C@H](C(=O)N[C@H]2Cc3cc(O)cc(c3)-c3ccc4c(c3)c(c(-c3ccccc3[C@H](C)OC)n4CC)CC(C)(C)COC(=O)[C@@H]3CCCN(N3)C2=O)C(C)C)C1"
result = "5.00 to 6.00"

[[record]]
compound = "CCn1c(-c2cccnc2[C@H](C)OC)c2c3cc(ccc31)-c1csc(n1)C[C@H](NC(=O)[C@H](C(C)C)N(C)C(=O)N1CC(N(C)S(C)(=O)=O)C1)C(=O)N1CCC[C@H](N1)C(=O)OCC(C)(C)C2 (atropisomer, axis not shown)"
result = "5.00 to 6.00"

[[record]]
compound = "CCn1c(-c2cccnc2[C@H](C)OC)c2c3cc(ccc31)-c1csc(n1)C[C@H](NC(=O)[C@H](C(C)C)N(C)C(=O)N1CC3CC(C1)N3C)C(=O)N1CCC[C@H](N1)C(=O)OCC(C)(C)C2"
result = "5.00 to 6.00"


Would you mind listing pIC50 for each of the following compounds?
1. CCn1c(-c2cccnc2[C@H](C)OC)c2c3cc(ccc31)-c1csc(n1)C[C@H](NC(=O)[C@H](C(C)C)N(C)C(=O)N1CC(NC)C1)C(=O)N1CCC[C@H](N1)C(=O)OCC(C)(C)C2 (atropisomer, axis not shown)
2. CCn1c(-c2cccnc2[C@H](C)OC)c2c3cc(ccc31)-c1csc(n1)C[C@H](NC(=O)[C@@H]1CCCO1)C(=O)N1CCC[C@H](N1)C(=O)OCC(C)(C)C2
3. CCn1c(-c2cccnc2[C@H](C)OC)c2c3cc(ccc31)-c1csc(n1)C[C@H](NC(=O)[C@@H](OC(=O)N1CC(N(C)C)C1)C(C)C)C(=O)N1CCC[C@H](N1)C(=O)OCC(C)(C)C2
4. C=CC(=O)N1CC[C@H](C(=O)N(C)[C@H](C(=O)N[C@H]2Cc3cc(O)cc(c3)-c3ccc4c(c3)c(c(-c3nccnc3COC)n4CC)CC(C)(C)COC(=O)[C@@H]3CCCN(N3)C2=O)C(C)C)C1

A.
5.00 to 6.00
5.00 to 6.00
5.00 to 6.00
< 5.00
